Target: HIV-1 Env of isolate 92WR021 (pseudovirus) (HIV-1)
Test: cell-based or functional assay
Each entry below carries its reported IC50 (µg/mL), pseudovirus neutralization.

[
  {
    "BINDER": "PGT-125 (5123_A06) (antibody, V domains shown) VH: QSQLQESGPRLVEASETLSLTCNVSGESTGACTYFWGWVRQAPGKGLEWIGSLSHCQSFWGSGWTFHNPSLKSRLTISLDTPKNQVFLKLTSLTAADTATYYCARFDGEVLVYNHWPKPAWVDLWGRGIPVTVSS VL: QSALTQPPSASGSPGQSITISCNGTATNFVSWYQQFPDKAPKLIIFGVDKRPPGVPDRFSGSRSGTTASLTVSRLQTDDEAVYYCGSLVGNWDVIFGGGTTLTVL",
    "IC50 (µg/mL), pseudovirus neutralization": 0.005
  },
  {
    "BINDER": "PGT-123 (4858_P08) (antibody, V domains shown) VH: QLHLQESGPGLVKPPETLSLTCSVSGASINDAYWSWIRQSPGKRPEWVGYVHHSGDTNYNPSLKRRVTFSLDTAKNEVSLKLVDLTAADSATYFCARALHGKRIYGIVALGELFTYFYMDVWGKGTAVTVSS VL: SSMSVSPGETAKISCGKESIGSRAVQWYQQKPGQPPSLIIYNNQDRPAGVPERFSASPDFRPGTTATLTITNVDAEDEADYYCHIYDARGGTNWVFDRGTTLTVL",
    "IC50 (µg/mL), pseudovirus neutralization": 0.005
  },
  {
    "BINDER": "PGT-126 (5141_B17) (antibody, V domains shown) VH: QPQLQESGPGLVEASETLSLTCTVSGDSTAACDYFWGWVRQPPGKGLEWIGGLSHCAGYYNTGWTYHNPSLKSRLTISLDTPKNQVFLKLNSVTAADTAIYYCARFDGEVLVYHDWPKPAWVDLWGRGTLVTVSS VL: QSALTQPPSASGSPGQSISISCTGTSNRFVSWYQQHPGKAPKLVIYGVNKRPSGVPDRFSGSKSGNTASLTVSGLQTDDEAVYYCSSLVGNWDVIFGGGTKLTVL",
    "IC50 (µg/mL), pseudovirus neutralization": 0.006
  },
  {
    "BINDER": "PGT-127 (5145_B14) (antibody, V domains shown) VH: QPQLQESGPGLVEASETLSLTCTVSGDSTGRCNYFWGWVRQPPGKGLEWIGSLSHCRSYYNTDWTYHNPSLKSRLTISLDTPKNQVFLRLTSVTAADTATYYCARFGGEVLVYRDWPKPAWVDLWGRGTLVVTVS VL: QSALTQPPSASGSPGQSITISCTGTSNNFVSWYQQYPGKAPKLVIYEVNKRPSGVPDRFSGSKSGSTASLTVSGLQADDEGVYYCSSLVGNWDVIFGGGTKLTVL",
    "IC50 (µg/mL), pseudovirus neutralization": 0.011
  }
]
